target: human ETB receptors (Homo sapiens); construct: host or cells: CHO cells; experiment: In vitro antagonistic effect on human ETB receptors (Ca2+ fluorescence, transfected CHO cells); type: cell-based; details: 0.3 nM endothelin-1
Sequence (P24530 27-442): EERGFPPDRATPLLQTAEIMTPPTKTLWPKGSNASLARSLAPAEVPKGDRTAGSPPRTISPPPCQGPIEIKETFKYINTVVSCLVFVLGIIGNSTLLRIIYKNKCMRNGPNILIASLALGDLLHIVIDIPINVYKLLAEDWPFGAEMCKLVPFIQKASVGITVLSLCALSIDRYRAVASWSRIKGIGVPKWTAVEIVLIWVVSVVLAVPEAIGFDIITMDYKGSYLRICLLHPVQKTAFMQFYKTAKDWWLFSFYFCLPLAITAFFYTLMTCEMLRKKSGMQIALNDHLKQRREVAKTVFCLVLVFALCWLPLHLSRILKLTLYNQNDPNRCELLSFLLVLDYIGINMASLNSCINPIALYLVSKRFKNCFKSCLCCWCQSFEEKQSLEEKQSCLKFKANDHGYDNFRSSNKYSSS

{"columns": ["RECORD_SMILES", "ASSAYED_SYSTEM", "IC50, µM"],
 "data": [
  ["COCCNS(=O)(=O)Nc1ncnc(OCCOc2ncc(Br)cn2)c1-c1ccc2c(c1)OCO2", "human ETB receptors (Homo sapiens)", 32]
]}

----------
Target: CYP1A2 (Homo sapiens, UniProt P05177)
Construct: Mixed human liver microsomes (HLM) were purchased from Corning Inc; tissue Corning Inc; host or cells: pooled human liver microsomes
Sequence (P05177 1-516): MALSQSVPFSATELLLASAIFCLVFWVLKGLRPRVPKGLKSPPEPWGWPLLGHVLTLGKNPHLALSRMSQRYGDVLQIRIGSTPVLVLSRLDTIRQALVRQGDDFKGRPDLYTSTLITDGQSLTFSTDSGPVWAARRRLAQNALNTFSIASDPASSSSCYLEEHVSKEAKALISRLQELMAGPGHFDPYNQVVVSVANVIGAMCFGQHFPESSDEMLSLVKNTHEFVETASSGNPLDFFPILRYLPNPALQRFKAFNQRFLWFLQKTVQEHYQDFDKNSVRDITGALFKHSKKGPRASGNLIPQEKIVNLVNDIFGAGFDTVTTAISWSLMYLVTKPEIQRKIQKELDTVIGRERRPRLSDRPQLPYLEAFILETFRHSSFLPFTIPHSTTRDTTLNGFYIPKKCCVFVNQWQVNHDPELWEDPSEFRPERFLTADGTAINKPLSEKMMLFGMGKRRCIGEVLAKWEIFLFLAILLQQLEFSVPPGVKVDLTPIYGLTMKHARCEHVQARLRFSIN
Test: Human liver microsomal cytochrome P450 isozyme inhibition
Type: in vitro ADME
Conditions: human liver microsomes
QUANTITY_KIND: IC50

{"columns": ["COMPOUND", "OBSERVED_MEASUREMENT"],
 "data": [
  ["CCCNS(=O)(=O)Nc1ncnc(OCCOc2ncc(Br)cn2)c1-c1ccc(Br)cc1 [Macitentan, reference compound]", "37.4 µM"]
]}

----------
test: Pharmacokinetics accompanying the efficacy in the MCT-induced rat model of pulmonary hypertension; assay type: in vivo, SD rats; details: Sprague-Dawley, rat, plasma, po; 30 mg/kg gavage, day 21, mean, n = 3; read-out: MRT0-last

{"columns": ["COMPOUND", "UOM", "MRT last"],
 "data": [
  ["CCCNS(=O)(=O)Nc1ncnc(OCCOc2ncc(Br)cn2)c1-c1ccc(Br)cc1 [Macitentan, reference compound]", "h", 4.38]
]}

----------
assay: Pharmacokinetics accompanying the efficacy in the MCT-induced rat model of pulmonary hypertension; format: in vivo, SD rats; conditions: Sprague-Dawley, rat, plasma, po; 1 mg/kg gavage, day 21, mean, n = 3; read-out: MRT0-last

{"columns": ["RECORD_SMILES", "MRT last (h)"],
 "data": [
  ["COCCNS(=O)(=O)Nc1ncnc(OCCOc2ncc(Br)cn2)c1-c1ccc2c(c1)OCO2", 2.83]
]}

----------
assay: Pharmacokinetics accompanying the efficacy in the MCT-induced rat model of pulmonary hypertension; format: in vivo, SD rats; settings: Sprague-Dawley, rat, plasma, po; 30 mg/kg gavage, day 21, mean, n = 3

{"columns": ["COMPOUND", "UOM", "Tmax"],
 "data": [
  ["CCCNS(=O)(=O)Nc1ncnc(OCCOc2ncc(Br)cn2)c1-c1ccc(Br)cc1 [Macitentan, reference compound]", "h", 4.08]
]}
